Hey, just so you know, these numbers are from PubChem BioAssay AID588590.

# target system: DNA polymerase iota (Homo sapiens)
# protocol description: qHTS for Inhibitors of Polymerase Iota
# assay conditions: Pol iota fluorescent replication assay, 10 min; series mostly up to 115 µM
In all, about 390,000 compounds went through this assay and about 4,000 (1%) were called active. Roughly 7% stayed inconclusive and do not appear here. Calls come from the whole dose curve; as a rule, active = well fitted inhibition curve with a large enough effect; inconclusive = small, poorly fitted or top-dose-only effect, or another doubt; inactive = no such curve, though single readings can be large or run the other way. For the sample, actives were picked, then their nearest neighbours and some compounds at random.
Choose one outcome from this list and give only that: active, inactive

Problem: For this molecule, state the assay outcome: CCOC(=O)c1c(NC(=O)Cc2coc3ccc(CC)cc23)sc2c1CCC2
Result: inactive

Problem: For this molecule, state the assay outcome: O=C1C2C3C=CC(C4CC34)C2C(=O)N1/N=C/c1ccc(-c2ccccc2[N+](=O)[O-])o1 (configuration not stated)
Result: inactive

Problem: For this molecule, state the assay outcome: CCc1ccc(NC(=O)CN2C(=O)CCSc3ccc(S(=O)(=O)N4CCCC4)cc32)cc1
Result: inactive

Problem: For this molecule, state the assay outcome: Cc1c(Cl)cccc1NC(=O)N1CCN(C(=O)c2nsc3ccccc23)CC1
Result: inactive

Problem: For this molecule, state the assay outcome: CCc1nc2nc(C)cc(Nc3ccc(F)c(Cl)c3)n2n1
Result: inactive

Problem: For this molecule, state the assay outcome: COc1ccccc1N1CCN(c2ncnc3onc(-c4cccc(Cl)c4)c23)CC1
Result: inactive

Problem: For this molecule, state the assay outcome: CCOc1ccc(NC(=O)CCNC(=O)c2ccc(Br)cc2)cc1
Result: inactive

Problem: For this molecule, state the assay outcome: C=CCc1cccc(/C=N/NC(=O)COc2ccc(-n3cnnn3)cc2)c1O
Result: inactive

Problem: For this molecule, state the assay outcome: CCc1ccc(Nc2nn3c(=O)c4cc5c(cc4nc3s2)OCO5)cc1
Result: inactive

Problem: For this molecule, state the assay outcome: CCc1cccc(CC)c1NC(=O)Cn1c(=O)c(-c2cc(C)ccc2NC(C)=O)nc2ccccc21
Result: inactive

Problem: For this molecule, state the assay outcome: Cc1ccc2c(=O)c(C(=O)c3cccc(Cl)c3)cn(CC(=O)NCc3ccccc3)c2n1
Result: inactive

Problem: For this molecule, state the assay outcome: Cc1cccc2cc(CN(Cc3cccs3)C(=S)NCc3ccco3)c(=O)[nH]c12
Result: inactive

Problem: For this molecule, state the assay outcome: Cc1noc(C)c1S(=O)(=O)Nc1ccc(C(=O)N2CCN(c3ccc(F)cc3)CC2)cc1
Result: active

Problem: For this molecule, state the assay outcome: Cc1cc(F)ccc1NS(=O)(=O)c1ccc(-n2cccn2)cc1
Result: inactive

Problem: For this molecule, state the assay outcome: COc1ccccc1C(=O)OCc1cc(=O)n2nc(-c3cccs3)sc2n1
Result: active

Problem: For this molecule, state the assay outcome: CCOc1ccc(NC(=O)c2ccc(NC(=O)CN3C(=O)C(=O)N(CC(C)C)C3=O)cc2)cc1
Result: inactive

Problem: For this molecule, state the assay outcome: Cn1c(=O)oc2cc(S(=O)(=O)CCC(=O)NCCc3ccc(Cl)cc3)ccc21
Result: inactive

Problem: For this molecule, state the assay outcome: CCOc1cccc2c1N[C@@H](c1ccc(C(=O)O)cc1)[C@H]1CC=C[C@@H]21
Result: active

Problem: For this molecule, state the assay outcome: CCOc1c(CNCc2ccc(C(=O)O)cc2)cccc1OC
Result: inactive

Problem: For this molecule, state the assay outcome: CC(=O)c1ccc(S(=O)(=O)N2CCN(C(=O)/C=C/c3ccc4ccccc4n3)CC2)cc1
Result: active

Problem: For this molecule, state the assay outcome: Cc1cc(C)cc(OCC(=O)Nc2c(C(=O)c3ccccc3)oc3ccccc23)c1
Result: inactive

Problem: For this molecule, state the assay outcome: Cc1ccc(C)c2[nH]c(=O)c(CN(Cc3cccnc3)C(=S)NCc3ccco3)cc12
Result: active

Problem: For this molecule, state the assay outcome: CCN(CC)S(=O)(=O)c1ccc2c(c1)N(CC(=O)NCc1ccccc1)C(=O)CS2
Result: inactive

Problem: For this molecule, state the assay outcome: Cc1nn2c(=O)cc(COC(=O)c3ccccc3NC(=O)COc3ccccc3C)nc2s1
Result: inactive

Problem: For this molecule, state the assay outcome: CC1=NN(c2ccc(Cl)c(C(=O)O)c2)C(=O)/C1=C/c1ccc(-c2ccccc2[N+](=O)[O-])o1
Result: active

Problem: For this molecule, state the assay outcome: CCOc1ccc(NC(=O)c2ccc(NC(=O)COC(=O)c3ccc(NC(=O)CC#N)cc3)cc2)cc1
Result: active

Problem: For this molecule, state the assay outcome: CCC(CC)c1nn2cc(-c3ccccc3)nc2s1
Result: inactive

Problem: For this molecule, state the assay outcome: CCc1cccc(C)c1Nc1c(-c2ccc(N(C)C)cc2)nc2ncccn12
Result: inactive

Problem: For this molecule, state the assay outcome: Cc1c(C)n(Cc2ccc(Cl)cc2)c2ccc(C(=O)NCCc3ccc(S(N)(=O)=O)cc3)cc12
Result: inactive

Problem: For this molecule, state the assay outcome: CN(Cc1ccccc1)c1ccc(/C=C/c2ccnc3ccccc23)cc1
Result: inactive

Problem: For this molecule, state the assay outcome: O=C1C[C@H]2C=CCc3cccc(c32)CN1Cc1ccccc1
Result: inactive

Problem: For this molecule, state the assay outcome: O=C(Nc1ccccc1Cl)N1CCC(CN2CCCCC2)CC1
Result: inactive

Problem: For this molecule, state the assay outcome: C/C=C/NNC(=O)Cc1ccc(OC)cc1
Result: inactive

Problem: For this molecule, state the assay outcome: CCOc1ccc(C(=O)COC(=O)c2ccc(-n3cnnn3)cc2)cc1
Result: inactive

Problem: For this molecule, state the assay outcome: O=C(Cc1ccccn1)c1ccc(O)cc1O
Result: inactive

Problem: For this molecule, state the assay outcome: O=C(Nc1ccccc1Cl)/C(Cl)=C(\Cl)S(=O)c1ccccc1 (configuration not stated)
Result: active

Problem: For this molecule, state the assay outcome: O=C(COc1ccc(-n2cnnn2)cc1)Nc1ccccc1Cl
Result: active

Problem: For this molecule, state the assay outcome: Cc1ccc(Cn2c(CCCNC(=O)C3CCCCC3)nc3ccccc32)cc1
Result: inactive

Problem: For this molecule, state the assay outcome: COc1cc2c(cc1OC)C(COc1ccc(F)cc1)N(C(=O)c1ccccc1F)CC2 (configuration not stated)
Result: inactive

Problem: For this molecule, state the assay outcome: CC1CCN(C(=O)CCc2nnc3ccc(NCc4ccco4)nn23)CC1
Result: inactive

Problem: For this molecule, state the assay outcome: O=C(Nc1ccccc1)N(Cc1cccnc1)Cc1ccco1
Result: inactive

Problem: For this molecule, state the assay outcome: COc1ccc(CNC(=O)c2cc3c(-c4ccccc4F)nn(C)c3s2)c(OC)c1
Result: inactive

---

# target system: DNA polymerase iota (Homo sapiens) (UniProt Q9UNA4)
# Sequence (Q9UNA4 whole entry, looked up): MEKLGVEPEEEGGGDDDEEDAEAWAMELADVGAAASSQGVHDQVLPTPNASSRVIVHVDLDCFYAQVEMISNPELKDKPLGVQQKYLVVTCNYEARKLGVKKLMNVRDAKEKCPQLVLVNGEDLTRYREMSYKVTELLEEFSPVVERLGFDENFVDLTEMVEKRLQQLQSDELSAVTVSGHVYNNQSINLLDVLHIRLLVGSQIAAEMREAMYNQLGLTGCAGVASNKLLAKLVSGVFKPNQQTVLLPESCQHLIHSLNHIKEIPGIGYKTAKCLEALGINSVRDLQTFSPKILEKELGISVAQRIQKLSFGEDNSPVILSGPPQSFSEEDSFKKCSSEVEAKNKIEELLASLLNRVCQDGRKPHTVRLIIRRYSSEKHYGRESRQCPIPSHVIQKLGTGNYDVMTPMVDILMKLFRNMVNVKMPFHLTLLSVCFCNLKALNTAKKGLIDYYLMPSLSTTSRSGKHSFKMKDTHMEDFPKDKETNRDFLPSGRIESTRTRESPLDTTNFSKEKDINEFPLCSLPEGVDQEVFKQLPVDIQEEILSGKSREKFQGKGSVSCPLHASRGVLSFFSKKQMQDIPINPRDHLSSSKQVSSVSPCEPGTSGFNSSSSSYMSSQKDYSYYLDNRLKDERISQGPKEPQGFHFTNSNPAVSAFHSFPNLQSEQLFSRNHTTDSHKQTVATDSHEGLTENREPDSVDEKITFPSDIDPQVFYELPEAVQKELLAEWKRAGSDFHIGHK
# protocol description: qHTS for Inhibitors of Polymerase Iota
# assay conditions: Pol iota fluorescent replication assay, 10 min; series mostly up to 115 µM
Screen size: about 390,000 compounds; about 4,000 (1%) were called active. Not shown: some 7% with an inconclusive outcome. Calls come from the whole dose curve; as a rule, active = well fitted inhibition curve with a large enough effect; inconclusive = small, poorly fitted or top-dose-only effect, or another doubt; inactive = no such curve, though single readings can be large or run the other way. Only a selection was taken, and actives are over-represented in it overall.
Choose one outcome from this list and give only that: 1 for active, 0 for inactive

Problem: For this compound, state the assay outcome: S=c1[nH]nc(-c2ccco2)n1/N=C/c1ccc(Br)s1
Result: 0

Problem: For this compound, state the assay outcome: Cn1c(=O)cc(OCC(=O)N2CCN(c3ccccc3)CC2)c2ccccc21
Result: 0

Problem: For this compound, state the assay outcome: Cc1cc(-c2n[nH]c(=S)n2/N=C/c2ccco2)n[nH]1
Result: 1

Problem: For this compound, state the assay outcome: Cc1ccc(S(=O)(=O)c2cn(Cc3ccccc3)c3cc(N4CCCC4)c(F)cc3c2=O)c(C)c1
Result: 0

Problem: For this compound, state the assay outcome: Cn1c(=O)c2c(-c3ccccc3Br)n(Cc3ccccc3)cc2n(C)c1=O
Result: 0

---

# target system: DNA polymerase iota (Homo sapiens)
# protocol description: qHTS for Inhibitors of Polymerase Iota
# assay conditions: Pol iota fluorescent replication assay, 10 min; series mostly up to 115 µM
In all, about 390,000 compounds went through this assay and about 4,000 (1%) were called active. About 7% were inconclusive and are not listed. Calls follow the shape of the dose curve; as a rule, active = well fitted inhibition curve with a large enough effect; inconclusive = small, poorly fitted or top-dose-only effect, or another doubt; inactive = no such curve, though single readings can be large or run the other way. Many of the other results were omitted from the sample, so actives are more common in it than they were.
Choose one outcome from this list and give only that: y = active, n = inactive

Problem: For this molecule, state the assay outcome: COc1ccccc1-c1ccnc2[nH]n(-c3ccccc3)c(=O)c12
Result: n

Problem: For this molecule, state the assay outcome: CCC(=O)Nc1cccc(C(=O)OCc2cc(=O)n3nc(CC)sc3n2)c1
Result: n

Problem: For this molecule, state the assay outcome: COc1ccc(CNC(=O)CC2Oc3ccc(C)cc3NC2=O)cc1 (centres undefined)
Result: n

Problem: For this molecule, state the assay outcome: N#Cc1ccc[n+](CC(=O)c2ccc(O)c(O)c2)c1
Result: y

---

# target system: DNA polymerase iota (Homo sapiens) (UniProt Q9UNA4)
# protocol description: qHTS for Inhibitors of Polymerase Iota
# assay conditions: Pol iota fluorescent replication assay, 10 min; series mostly up to 115 µM
# Source text: DNA polymerases, such as Pol iota, are specifically involved in DNA repair. Pol iota specifically plays an important role in translesion synthesis, where the normal high-fidelity DNA polymerases cannot proceed and DNA synthesis stalls. […] Thus, while pol eta's (and most likely iota's) normal function is to protect humans against the deleterious consequences of DNA damage, under certain conditions they can have deleterious effects on human health. […]
Out of some 390,000 compounds screened, about 4,000 (1%) were called active. Not shown: some 7% with an inconclusive outcome. Calls come from the whole dose curve; as a rule, active = well fitted inhibition curve with a large enough effect; inconclusive = small, poorly fitted or top-dose-only effect, or another doubt; inactive = no such curve, though single readings can be large or run the other way. What follows is part of a selection rich in actives, with near analogues and random picks from the rest.
Choose one outcome from this list and give only that: active, inactive

Problem: For this molecule, state the assay outcome: c1ccc(CSc2nnc(-c3ccco3)c(-c3ccco3)n2)cc1
Result: active

Problem: For this molecule, state the assay outcome: COc1cc(CNCCSc2nnnn2C)ccc1OCc1c(F)cccc1Cl
Result: inactive

Problem: For this molecule, state the assay outcome: Cc1cc(C)c2nc(N3CCC(C(=O)NCCN4CCOCC4)CC3)sc2c1
Result: inactive

Problem: For this molecule, state the assay outcome: COc1ccc(Cn2c(C(=O)O)c(CNCCc3cccs3)c3ccc(OC)cc32)cc1
Result: inactive

Problem: For this molecule, state the assay outcome: O=C(Cn1cc(SCc2ccccc2)c2ccccc21)N1CCCCC1
Result: inactive

Problem: For this molecule, state the assay outcome: NS(=O)(=O)c1ccc(NS(=O)(=O)/C=C/c2ccccc2)cc1
Result: inactive

Problem: For this molecule, state the assay outcome: CCCN1CCC(=O)N(C(CSc2ccc(OC)cc2)Cc2ccccc2)CC1 (centres undefined)
Result: inactive

Problem: For this molecule, state the assay outcome: O=C(COC(=O)c1cc(=O)[nH]c2ccccc12)Nc1nc(-c2cccc(Br)c2)cs1
Result: inactive

Problem: For this molecule, state the assay outcome: CCOc1ccc(OCC)c(Nc2nc3ccccc3n3nnnc23)c1
Result: inactive

Problem: For this molecule, state the assay outcome: COc1ccccc1NC(=O)Cn1cnc2ccc(S(=O)(=O)N3CCC(C)CC3)cc2c1=O
Result: inactive

Problem: For this molecule, state the assay outcome: Cc1ccc(-c2nnc(SCC(=O)NCc3ccccc3)nc2-c2ccc(C)cc2)cc1
Result: inactive

Problem: For this molecule, state the assay outcome: O=C(CSc1nc2ccccc2c(=O)[nH]1)Nc1nc(-c2ccc(Br)cc2)cs1
Result: active

Problem: For this molecule, state the assay outcome: CCNC(=O)Cn1nc(C)n2c(cc3c(OC)cccc32)c1=O
Result: inactive

Problem: For this molecule, state the assay outcome: CCOc1ccc(N=C2SC(C(=O)O)CC(=O)N2C)cc1 (centres undefined)
Result: inactive
